assay: Tumor cell line cytotoxicity of flavonoid dimers, LCC6; format: cell-based, human; conditions: human, LCC6 cells, IC50 of compound alone
Listed next: entries and their corresponding IC50 at 72 h.

Reference set, count: 6
>  <Compound>
O=c1cc(-c2ccc(OCCOCCN(CCOCCOc3ccc(-c4cc(=O)c5ccccc5o4)cc3)Cc3ccc(-c4ccccc4)cc3)cc2)oc2ccccc12

>  <Assay Readout>
IC50 at 72 h

>  <Result>
> 99 µM

$$$$
>  <Compound>
O=c1cc(-c2ccc(OCCOCCN(CCOCCOc3ccc(-c4cc(=O)c5ccccc5o4)cc3)Cc3ccccc3F)cc2)oc2ccccc12

>  <Assay Readout>
IC50 at 72 h

>  <Result>
> 100 µM

$$$$
>  <Compound>
O=c1cc(-c2ccc(OCCOCCN(CCOCCOc3ccc(-c4cc(=O)c5ccccc5o4)cc3)Cc3cccnc3)cc2)oc2ccccc12 [Compound 64a]

>  <Assay Readout>
IC50 at 72 h

>  <Result>
5.7 µM

$$$$
>  <Compound>
O=c1cc(-c2ccc(OCCOCCN(CCOCCOc3ccc(-c4cc(=O)c5ccccc5o4)cc3)Cc3ccncc3Br)cc2)oc2ccccc12 [Compound 64d]

>  <Assay Readout>
IC50 at 72 h

>  <Result>
> 100 µM

$$$$
>  <Compound>
Cc1ccc(CN(CCOCCOc2ccc(-c3cc(=O)c4ccccc4o3)cc2)CCOCCOc2ccc(-c3cc(=O)c4ccccc4o3)cc2)cc1

>  <Assay Readout>
IC50 at 72 h

>  <Result>
> 100 µM

$$$$
>  <Compound>
COc1cc(CN(CCOCCOc2ccc(-c3cc(=O)c4ccccc4o3)cc2)CCOCCOc2ccc(-c3cc(=O)c4ccccc4o3)cc2)cc(OC)c1

>  <Assay Readout>
IC50 at 72 h

>  <Result>
> 100 µM

$$$$

Alright, here's another compound for you.
Task: Return IC50 at 72 h (reported value) for this compound: COc1cccc2oc(-c3ccc(OCCOCCN(CCOCCOc4ccc(-c5cc(=O)c6c(OC)cccc6o5)cc4)C(=O)OC(C)(C)C)cc3)cc(=O)c12 [Compound 16d]
Output: 4.6 µM

====

system: Raw264.7 cells; assay: Cytotoxicity, mouse macrophage Raw264.7; type: cell-based; details: 72 hrs
Assay Readout: IC50 (µM)
Kindly provide the numeric value in µM only, without the unit symbol.

Task: Find the measured IC50 of C[C@@H]1[C@H](O)[C@@H](C)/C=C/C=C/C=C/C=C/C=C/C=C/C=C/[C@H](O[C@@H]2O[C@H](C)[C@@H](O)[C@H](N)[C@@H]2O)C[C@@H]2O[C@](O)(C[C@@H](O)C[C@@H](O)[C@H](O)CC[C@@H](O)C[C@@H](O)CC(=O)O[C@H]1C)C[C@H](O)[C@H]2C(=O)O [Amphotericin B, amphotericin B, reference compound] with Raw264.7 cells as test system.
Output: 12

====

test system: Leishmania promastigotes; assay: Anti-promastigote activity over the Leishmania strains; type: cell-based, Leishmania donovani, Leishmania major; settings: different Leishmania strains; read-out: Anti-promastigote IC50, range over strains
Listed next: entries and their corresponding IC50.

Reference set, count: 3
>  <Compound>
CCCCCCCCCCCCCCCCOP(=O)([O-])OCC[N+](C)(C)C [Miltefosine, reference compound]

>  <IC50>
4.3 to 17.3 µM

$$$$
>  <Compound>
O=c1cc(-c2ccc(OCCOCCN(CCOCCOc3ccc(-c4cc(=O)c5ccccc5o4)cc3)Cc3ccncc3)cc2)oc2ccccc12 [Compound 21]

>  <IC50>
0.13 to 0.35 µM

$$$$
>  <Compound>
O=c1cc(-c2ccc(OCCOCCNCCOCCOc3ccc(-c4cc(=O)c5ccccc5o4)cc3)cc2)oc2ccccc12 [Compound 12a]

>  <IC50>
< 4 µM

$$$$

Task: Return IC50 (reported value) for this compound: O=c1cc(-c2ccc(OCCOCCN(CCOCCOc3ccc(-c4cc(=O)c5ccccc5o4)cc3)Cc3ccccn3)cc2)oc2ccccc12 [Compound 22]
Output: 1.8 to 2.4 µM

Task: Return IC50 (reported value) for this compound: N=C(N)c1ccc(OCCCCCOc2ccc(C(=N)N)cc2)cc1 [Pentamidine, reference compound]
Output: 5.3 to 74.7 µM

Task: Return IC50 (reported value) for this compound: NC[C@@H]1O[C@H](O[C@H]2[C@@H](O)[C@H](O[C@@H]3[C@@H](O)[C@H](N)C[C@H](N)[C@H]3O[C@H]3O[C@H](CO)[C@@H](O)[C@H](O)[C@H]3N)O[C@@H]2CO)[C@H](N)[C@@H](O)[C@@H]1O [Paromomycin, paromomycin, reference compound]
Output: 24.5 to 94.5 µM

Hey, just so you know, these numbers are from patent US8980848B2.
